- test method notes: chemical genetic growth profiling, strain panel (AID 1159580);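 further: tested at 20 µM; growth read once vehicle control cultures reached saturation at 30 °C; 1 = growth at the plate median or of vehicle wells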
- study conditions: S. cerevisiae deletion strains, growth OD, locus YNL067W, strain RPL9B
The campaign covered roughly 5,500 compounds. About 2,000 (36%) were called active. About 18% were inconclusive and are not listed. No stated cut-off is given here; in the data, active means normalized growth mostly below about 0.91 (no sharp cut-off); inconclusive means no clear call, values can overlap the other calls; inactive means mostly above about 0.92. Some of the results follow.
Tick one outcome: Yes = active, No = inactive

Examples from the recorded data:
CCC(C(N)=O)c1ccccc1 (configuration not stated) ... No
CN1Cc2c(ccc3c2OCO3)C2C(O)Cc3cc4c(cc3C21)OCO4 (configuration not stated) ... No
COc1ccc(C[C@H]2NC[C@H](O)[C@H]2OC(C)=O)cc1 ... Yes
C[N+](C)(C)CC(=O)[O-] ... No

# lookup: test call for O=C(O)c1ccccc1OP(=O)(O)O
No

Subsequent entry: CC(=O)OCC(CCn1cnc2cnc(N)nc21)COC(C)=O
No

Subsequent entry: CN1CCc2cc3c(cc2C1O)OCO3 (configuration not stated)
No

* * *

- test method notes: chemical genetic growth profiling, strain panel (AID 1159580)
- study conditions: S. cerevisiae deletion strains, growth OD, locus YDL101C, strain DUN1
About 2,000 (36%) of roughly 5,500 compounds were called active. Roughly 18% stayed inconclusive and do not appear here. Rule as the data show it: active = normalized growth mostly below about 0.91 (no sharp cut-off); inconclusive = no clear call, values can overlap the other calls; inactive = mostly above about 0.92. Some of the results follow.
Tick one outcome: t = active, f = inactive

Examples from the recorded data:
O=C(C=C(O)c1ccc(Br)cc1)C(=O)Nc1ccccc1 ... t
COc1cc2c(cc1OC)C(=O)C(CC1CCN(Cc3ccccc3)CC1)C2 (stereo unspecified) ... f
N#C/C(=N/Nc1ccccc1Cl)S(=O)(=O)c1ccc(Cl)cc1 ... f
Cn1c([N+](=O)[O-])cnc1/C=C(\C#N)C(=O)Nc1ccc(F)cc1 ... t
COc1ccccc1CC(=O)NC1CCN(Cc2ccccc2)CC1 ... f

# lookup: test call for O=C(Nc1ccccc1C(=O)Nc1ccc(Br)cc1)c1ccccc1
f

Subsequent entry: COc1cc(OC)c2c(c1)OC(c1ccc(OC)c(OC)c1)C(O)C2 (stereo unspecified)
f

* * *

- test method notes: chemical genetic growth profiling, strain panel (AID 1159580)
- study conditions: S. cerevisiae deletion strains, growth OD, locus YAL013W, strain DEP1, hits give low values
The campaign covered roughly 5,500 compounds. About 2,000 (36%) were called active. About 18% were inconclusive and are not listed. This is one part of the list.
value type: normalized growth
Kindly provide the number alone.

A selection of reference data follows.
CC(=O)O[C@H]1C(=O)[C@@]2(C)C([C@H](OC(=O)c3ccccc3)[C@]3(O)C[C@H](OC(=O)[C@H](O)[C@@H](NC(=O)c4ccccc4)c4ccccc4)C(C)=C1C3(C)C)[C@]1(OC(C)=O)CO[C@@H]1C[C@@H]2O (stereo partly specified) ... 1.08
CO[C@H]1C[C@H](O[C@H]2[C@H](C)[C@@H](OC3O[C@H](C)C[C@H](N(C)C)[C@H]3O)[C@@H](C)C[C@]3(CO3)C(=O)[C@H](C)[C@@H](O)[C@@H](C)[C@@H](C)OC(=O)[C@@H]2C)O[C@@H](C)[C@@H]1O (stereo partly specified) ... 1.01
O=c1ccc2cc(O)c(O)cc2o1 ... 1.01

Could you tell me which normalized growth is on file for O=C(c1ccccc1)C1CCN(c2ccc(C(F)(F)F)cc2[N+](=O)[O-])CC1 ?
0.995

Subsequent entry: N#Cc1c(Cl)c(Cl)c(Cl)c(C#N)c1Cl
1

Subsequent entry: Oc1c(Cl)c(Cl)c(Cl)c(Cl)c1Cl
0.885

Subsequent entry: O=c1ccc2ccccc2o1
1.02

Subsequent entry: CC(C)Oc1cccnc1N(C)C1CCN(Cc2ccccc2)CC1
1.02

* * *

- test method notes: chemical genetic growth profiling, strain panel (AID 1159580)
- study conditions: S. cerevisiae deletion strains, growth OD, locus YJL095W, strain BCK1, hits give low values
Screen size: about 5,500 compounds; about 2,000 (36%) were called active. Roughly 18% stayed inconclusive and do not appear here. The list shows a part of the results.
Entries and their normalized growth
Kindly provide the number alone.

A selection of reference data follows.
CCCCCCCCCCCCCCCCOP(=O)([O-])OCC[N+](C)(C)C ... 0.985
Cc1cc(=O)c2c(O)cc(O)c(C)c2o1 ... 0.962
O=C(C=C(O)c1ccc(Br)cc1)C(=O)Nc1ccccc1 ... 0.136

Could you tell me which normalized growth is on file for CN1Cc2c(ccc3c2OCO3)C2C(O)Cc3cc4c(cc3C21)OCO4 (stereo unspecified) ?
0.985

Subsequent entry: COc1ccc(-c2cc(=O)c3c(O)cc(OC)c(OC)c3o2)c(OC)c1
0.967

Subsequent entry: O=C(Oc1cc(Cl)c(Cl)cc1Cl)C1c2ccccc2Oc2ccccc21
0.862

* * *

- test method notes: chemical genetic growth profiling, strain panel (AID 1159580)
- study conditions: S. cerevisiae deletion strains, growth OD, locus YNL322C, strain KRE1 (second series), hits give low values
Hit rate of the full screen: of about 5,500 compounds, about 2,000 (36%) were called active. Roughly 18% stayed inconclusive and do not appear here. Some of the results follow.
Classify: condition met when normalized growth is strictly less than 1; condition not met when normalized growth is not.

Examples from the recorded data:
CC(C)[C@H](N)C(=O)OCCOCn1cnc2c(=O)[nH]c(N)nc21 ... condition not met
COc1ccc(C2CC(=O)c3ccc(OC)cc3O2)cc1 (stereo unspecified) ... condition met
S=C=NCc1ccccc1 ... condition met
C[N+](C)(C)CC(=O)[O-] ... condition met
C[C@@H]1O[C@@H](O[C@H]2[C@@H](Oc3cc(O)c4c(c3)O[C@H](c3ccc(O)cc3)CC4=O)O[C@H](CO)[C@@H](O)[C@@H]2O)[C@H](O)[C@H](O)[C@H]1O ... condition met

# input for lookup
Lab log: compare recorded normalized growth with 1; is it strictly lower for C=C1CC[C@H](O)C/C1=C/C=C1\CCC[C@]2(C)C([C@H](C)/C=C/[C@H](C)C(C)C)CC[C@@H]12 (stereo partly specified) ?
condition not met

* * *

- test method notes: chemical genetic growth profiling, strain panel (AID 1159580);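 further: tested at 20 µM; growth read once vehicle control cultures reached saturation at 30 °C; 1 = growth at the plate median or of vehicle wells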
- study conditions: S. cerevisiae deletion strains, growth OD, locus YOR231W, strain MKK1, hits give low values
Among all 5,500 compounds or so, about 2,000 (36%) were called active. Another 18% or so got no clear call; they are omitted. The list shows a part of the results.
value type: normalized growth
Kindly provide the number alone.

Could you tell me which normalized growth is on file for CC(=O)O[C@H]1C(=O)[C@@]2(C)C([C@H](OC(=O)c3ccccc3)[C@]3(O)C[C@H](OC(=O)[C@H](O)[C@@H](NC(=O)c4ccccc4)c4ccccc4)C(C)=C1C3(C)C)[C@]1(OC(C)=O)CO[C@@H]1C[C@@H]2O (some centres undefined) ?
0.964

Subsequent entry: CCC(C)c1ccccc1NC(=O)c1cc2cccc([N+](=O)[O-])c2[nH]1 (centres undefined)
0.631

Subsequent entry: CNC1(C)C2CCC(C2)C1(C)C (centres undefined)
0.824

Subsequent entry: CC(=O)OCC(CCn1cnc2cnc(N)nc21)COC(C)=O
0.991

Subsequent entry: CC(C)[N+](C)(CCOC(=O)C1c2ccccc2Oc2ccccc21)C(C)C
0.991

* * *

- test method notes: chemical genetic growth profiling, strain panel (AID 1159580);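 further: tested at 20 µM; growth read once vehicle control cultures reached saturation at 30 °C; 1 = growth at the plate median or of vehicle wells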
- study conditions: S. cerevisiae deletion strains, growth OD, locus YER016W, strain bim1
The whole screen tested about 5,500 compounds, of which about 2,000 (36%) were called active. Not shown: some 18% with an inconclusive outcome. No stated cut-off is given here; in the data, active means normalized growth mostly below about 0.91 (no sharp cut-off); inconclusive means no clear call, values can overlap the other calls; inactive means mostly above about 0.92. This is one part of the list.
Tick one outcome: true (1) = active, false (0) = inactive

C=CC1=C(C(=O)O)N2C(=O)[C@@H](NC(=O)/C(=N/O)c3csc(N)n3)[C@H]2SC1 ... false (0)
CN1CCCC(n2nc(Cc3ccc(Cl)cc3)c3ccccc3c2=O)CC1 (stereo unspecified) ... false (0)
CC(=O)OC1CC23CC24CCC(OC2OCC(O)C(O)C2O)C(C)(C)C4CCC3C2(C)CC3OC4(CC(C)C3C12C)OC(O)C1(C)OC41 (stereo unspecified) ... false (0)
CCSC(=N)N ... false (0)
COc1cc(OC)c2c(c1)O[C@H](c1ccc(OC)c(OC)c1)[C@@H](O)C2 ... false (0)
CC(=O)CC(=O)CCC(=O)O ... false (0)

# lookup: test call for COc1ccc2c(c1)OC[C@@H](Cc1ccc(OC)c(OC)c1)[C@@H]2O
false (0)

Subsequent entry: COC(=O)COc1cc(Cl)c(Cl)cc1Cl
false (0)

* * *

- test method notes: chemical genetic growth profiling, strain panel (AID 1159580);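 further: tested at 20 µM; growth read once vehicle control cultures reached saturation at 30 °C; 1 = growth at the plate median or of vehicle wells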
- study conditions: S. cerevisiae deletion strains, growth OD, locus YMR125W, strain sto1, hits give low values
Hit rate of the full screen: of about 5,500 compounds, about 2,000 (36%) were called active. Inconclusive results (about 18%) are left out. Some of the results follow.
value type: normalized growth
Kindly provide the number alone.

A selection of reference data follows.
NCC1CCCCC1CC(=O)O (centres undefined) ... 0.985
CCC1(c2ccccc2)C(=O)NCNC1=O ... 0.979
CC(C)CC1C(=O)N2CCC[C@H]2C2(O)O[C@](NC(=O)C3C=C4c5cccc6[nH]c(Br)c(c56)C[C@H]4N(C)C3)(C(C)C)C(=O)N12 (some centres undefined) ... 0.99

Could you tell me which normalized growth is on file for C[N+](C)(C)CCOP(=O)([O-])OP(=O)(O)OC[C@H]1OC(n2ccc(N)nc2=O)[C@H](O)[C@@H]1O (some centres undefined) ?
0.994

Subsequent entry: C=C1CC[C@H](O)C/C1=C/C=C1\CCC[C@]2(C)C([C@H](C)/C=C/[C@H](C)C(C)C)CC[C@@H]12 (some centres undefined)
1.02

Subsequent entry: COc1cc(OC)c2c(c1)O[C@H](c1ccc(OC)c(OC)c1)[C@@H](O)C2
0.982

Subsequent entry: CC(C)(N=NC(C)(C)C(=N)N)C(=N)N
1.04

Subsequent entry: CCc1ccc(CCOc2ccc(CC3SC(=O)NC3=O)cc2)nc1 (centres undefined)
1.02

Subsequent entry: O=C(/C=C/C=C/c1ccc2c(c1)OCO2)N1CCCCC1
0.961

Subsequent entry: O=[N+]([O-])O[C@H]1CO[C@H]2[C@@H]1OC[C@H]2O[N+](=O)[O-]
0.996

Subsequent entry: COc1ccc2c(c1)OC[C@@H](Cc1ccc(OC)c(OC)c1)[C@H]2O
1.01

Subsequent entry: CCCCCC(C)N (centres undefined)
1.03

Subsequent entry: CC(C)(CO)C(O)C(=O)NCCCO (centres undefined)
1.03

Subsequent entry: COc1ccc2c(c1)OC[C@@H](Cc1ccc(OC)c(OC)c1)[C@@H]2O
1.01
